- targetOfAssay: hFXR (Homo sapiens)
- testSummary: In Vitro FXR Assay (TK): TK-ECRE-luc reporter in transfected CV-1 cells
- measurementConditions: 18 hrs, luminescence, maximum efficacy of <25% of the Fexarmine control classified as '+'
pEC50: −log10 of the molar value.
valueKind: pEC50

Sample answers from the record:
[[record]]
compound = "COCCNC(=O)O[C@H]1CC[C@H](C(=O)N(C[C@H]2CC[C@H](c3ccc(OC)c(C)c3)CC2)c2cccc(-c3cnn(C4CC4)c3)c2)CC1 [Compound 6.10]"
targetofassay = "hFXR (Homo sapiens)"
valuekind = "pEC50"
observedvalue = "≥ 6.60"

[[record]]
compound = "COc1ccc([C@H]2CC[C@H](CN(c3cc(-c4coc(C5CC5)n4)ccn3)C(=O)[C@H]3CC[C@H](NC(=O)C4CCC4)CC3)CC2)nc1C [Compound 30.02]"
targetofassay = "hFXR (Homo sapiens)"
valuekind = "pEC50"
observedvalue = "≥ 6.60"


Consider now this further compound.
Looking up COc1ccc([C@H]2CC[C@H](CN(c3cccc(-c4cnn(C(C)C)c4)c3)C(=O)[C@H]3CC[C@H](OC(=O)N4CCOCC4)CC3)CC2)nc1C [Compound 6.43] , I found its pEC50 recorded as ≥ 6.60

----------
- targetOfAssay: UniProtKB Q96RI1
- testSummary: In Vitro FXR Assay (TK): TK-ECRE-luc reporter in transfected CV-1 cells
- measurementConditions: 18 hrs, luminescence, maximum efficacy of <25% of the Fexarmine control classified as '+'
pEC50: −log10 of the molar value.
valueKind: pEC50

Sample answers from the record:
[[record]]
smilesstring = "COc1ccc([C@H]2CC[C@H](CN(c3cccc(-c4cnn(C5CC5)c4)c3)C(=O)[C@H]3CC[C@H](CC(=O)O)CC3)CC2)cc1C"
targetofassay = "UniProtKB Q96RI1"
valuekind = "pEC50"
observedvalue = "≥ 6.60"

[[record]]
smilesstring = "COc1ccc([C@H]2CC[C@H](CN(c3cccc(-c4cnn(C5CC5)c4)c3)C(=O)[C@H]3CC[C@H](OC(=O)N4CC(N)C4)CC3)CC2)cc1C"
targetofassay = "UniProtKB Q96RI1"
valuekind = "pEC50"
observedvalue = "≥ 6.60"

[[record]]
smilesstring = "COc1ccc([C@H]2CC[C@H](CN(c3cc(-c4cnn(C5CC5)c4)ccn3)C(=O)[C@H]3CC[C@H](C(=O)O)CC3)CC2)cc1C"
targetofassay = "UniProtKB Q96RI1"
valuekind = "pEC50"
observedvalue = "≥ 6.60"

[[record]]
smilesstring = "COc1ccc([C@H]2CC[C@H](CN(c3cccc(-c4coc(C5CC5)n4)c3)C(=O)[C@H]3CC[C@H](CC(=O)O)CC3)CC2)nc1C#N"
targetofassay = "UniProtKB Q96RI1"
valuekind = "pEC50"
observedvalue = "≥ 6.60"

[[record]]
smilesstring = "CCc1nc(-c2ccnc(N(C[C@H]3CC[C@H](c4ccc(OC)c(C)n4)CC3)C(=O)[C@H]3CC[C@H](OC(=O)N4CC(O)C4)CC3)c2)co1"
targetofassay = "UniProtKB Q96RI1"
valuekind = "pEC50"
observedvalue = "≥ 6.60"


Consider now this further molecule.
Looking up `COc1ccc([C@H]2CC[C@H](CN(c3cccc(-c4cnn(C5CC5)c4)c3)C(=O)[C@H]3CC[C@H](NC(=O)CO)CC3)CC2)cc1C` , I found its pEC50 recorded as ≥ 6.60

----------
Overview of recorded pEC50 for various compounds
- targetOfAssay: hFXR (Homo sapiens)
- Sequence (Q96RI1 1-486): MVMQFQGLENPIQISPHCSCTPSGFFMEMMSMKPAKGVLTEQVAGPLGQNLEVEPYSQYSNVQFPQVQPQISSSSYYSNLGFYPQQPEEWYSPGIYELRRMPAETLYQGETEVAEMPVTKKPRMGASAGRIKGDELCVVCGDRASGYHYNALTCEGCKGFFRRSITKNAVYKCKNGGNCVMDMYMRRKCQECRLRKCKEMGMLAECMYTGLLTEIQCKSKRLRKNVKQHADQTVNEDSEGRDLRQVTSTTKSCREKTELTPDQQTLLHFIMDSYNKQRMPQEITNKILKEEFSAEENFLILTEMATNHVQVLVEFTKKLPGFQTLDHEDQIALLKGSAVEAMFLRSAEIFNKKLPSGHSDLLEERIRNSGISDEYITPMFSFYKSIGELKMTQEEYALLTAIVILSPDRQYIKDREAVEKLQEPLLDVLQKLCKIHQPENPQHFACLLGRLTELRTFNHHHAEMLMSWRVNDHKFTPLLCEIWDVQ
- Sequence (P19793 1-462 partner): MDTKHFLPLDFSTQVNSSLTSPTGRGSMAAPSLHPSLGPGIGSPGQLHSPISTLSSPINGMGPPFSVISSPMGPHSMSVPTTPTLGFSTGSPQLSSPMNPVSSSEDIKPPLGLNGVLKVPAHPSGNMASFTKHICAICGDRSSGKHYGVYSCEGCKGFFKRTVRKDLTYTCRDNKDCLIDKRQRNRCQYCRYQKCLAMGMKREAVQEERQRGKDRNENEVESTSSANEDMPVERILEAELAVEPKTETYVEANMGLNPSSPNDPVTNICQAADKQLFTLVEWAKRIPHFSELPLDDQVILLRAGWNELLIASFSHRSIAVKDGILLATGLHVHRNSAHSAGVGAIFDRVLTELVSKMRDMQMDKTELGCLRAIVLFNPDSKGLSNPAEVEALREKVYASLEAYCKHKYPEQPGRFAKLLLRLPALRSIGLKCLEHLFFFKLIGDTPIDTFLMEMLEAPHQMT
- testSummary: In Vitro FXR Assay (TK): TK-ECRE-luc reporter in transfected CV-1 cells
- measurementConditions: 18 hrs, luminescence, maximum efficacy of <25% of the Fexarmine control classified as '+'
pEC50: −log10 of the molar value.

Looking up `COc1ccc([C@H]2CC[C@H](CN(c3cccc(-c4cnn(C5CC5)c4)c3)C(=O)[C@H]3CC[C@H](OC(=O)NC(C)C)CC3)CC2)cc1C` , I found its pEC50 recorded as ≥ 6.60

Looking up `CNC(=O)O[C@H]1CC[C@H](C(=O)N(C[C@H]2CC[C@H](c3ccc(OC)c(C)n3)CC2)c2cccc(-c3cnc(C4CC4)s3)c2)CC1` , I found its pEC50 recorded as ≥ 6.60

Looking up `COc1ccc([C@H]2CC[C@H](CN(c3cc(-c4cnn(C(C)C)c4)ccn3)C(=O)[C@H]3CC[C@H](OC(=O)N4CCOCC4)CC3)CC2)nc1C` , I found its pEC50 recorded as ≥ 6.60

----------
Overview of recorded EC50 for various molecules
- targetOfAssay: UniProt Q96RI1
- testSummary: In Vitro FXR Assay (TK): TK-ECRE-luc reporter in transfected CV-1 cells
- measurementConditions: 18 hrs, luminescence, maximum efficacy of <25% of the Fexarmine control classified as '+'

[[record]]
smilesstring = "COc1ccc([C@H]2CC[C@H](CN(c3cccc(-c4cnn(C5CC5)c4)c3)C(=O)[C@H]3CC[C@H](NC(=O)CS(C)(=O)=O)CC3)CC2)cc1C"
targetofassay = "UniProt Q96RI1"
observedvalue = "250 to 1000 nM"


Looking up `COc1ccc([C@H]2CC[C@H](CN(c3cc(-c4cnn(C(C)C)c4)ccn3)C(=O)[C@H]3CC[C@H](OC(=O)N4CC(OC(C)C)C4)CC3)CC2)cc1C#N` , I found its EC50 recorded as ≤ 250 nM

Looking up `CCCCCOC(=O)[C@H]1CC[C@H](C(=O)N(C[C@H]2CC[C@H](c3ccc(OC)c(C)c3)CC2)c2cccc(-c3cnn(C4CC4)c3)c2)CC1` , I found its EC50 recorded as ≥ 1000 nM

Looking up `COC(=O)NCC(=O)N[C@H]1CC[C@H](C(=O)N(C[C@H]2CC[C@H](c3ccc(OC)c(C)c3)CC2)c2cccc(-c3cnn(C4CC4)c3)c2)CC1` , I found its EC50 recorded as ≤ 250 nM

Looking up `CCCOC1CN(C(=O)O[C@H]2CC[C@H](C(=O)N(C[C@H]3CC[C@H](c4ccc(OC)c(C)n4)CC3)c3cc(-c4coc(C5CC5)n4)ccn3)CC2)C1` , I found its EC50 recorded as ≤ 250 nM

----------
- targetOfAssay: hFXR (Homo sapiens, UniProt Q96RI1)
- Sequence (Q96RI1 1-486): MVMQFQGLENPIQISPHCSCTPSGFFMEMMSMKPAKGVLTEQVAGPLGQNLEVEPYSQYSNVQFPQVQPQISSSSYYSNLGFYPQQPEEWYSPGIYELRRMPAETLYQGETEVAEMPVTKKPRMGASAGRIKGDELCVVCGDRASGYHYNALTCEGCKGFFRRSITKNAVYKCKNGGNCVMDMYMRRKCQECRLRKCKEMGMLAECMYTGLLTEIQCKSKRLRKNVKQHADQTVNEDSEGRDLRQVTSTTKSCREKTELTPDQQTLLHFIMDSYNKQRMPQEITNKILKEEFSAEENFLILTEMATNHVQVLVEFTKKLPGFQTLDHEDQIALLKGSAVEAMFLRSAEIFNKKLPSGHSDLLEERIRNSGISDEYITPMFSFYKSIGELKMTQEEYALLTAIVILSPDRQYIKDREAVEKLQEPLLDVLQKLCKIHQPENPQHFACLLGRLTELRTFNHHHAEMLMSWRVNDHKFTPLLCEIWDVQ
- Sequence (P19793 1-462 partner): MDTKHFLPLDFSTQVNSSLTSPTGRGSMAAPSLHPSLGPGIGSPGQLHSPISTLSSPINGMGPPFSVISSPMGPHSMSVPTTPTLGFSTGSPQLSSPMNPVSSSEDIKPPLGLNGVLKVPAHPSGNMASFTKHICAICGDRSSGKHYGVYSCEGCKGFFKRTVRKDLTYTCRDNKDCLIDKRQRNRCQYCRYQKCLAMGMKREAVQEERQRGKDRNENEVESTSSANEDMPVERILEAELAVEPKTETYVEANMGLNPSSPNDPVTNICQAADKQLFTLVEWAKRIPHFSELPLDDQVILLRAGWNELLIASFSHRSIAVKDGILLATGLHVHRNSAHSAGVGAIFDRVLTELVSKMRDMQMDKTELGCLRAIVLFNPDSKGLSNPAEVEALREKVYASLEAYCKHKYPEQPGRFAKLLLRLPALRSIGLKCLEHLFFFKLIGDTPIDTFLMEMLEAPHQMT
- testSummary: In Vitro FXR Assay (TK): TK-ECRE-luc reporter in transfected CV-1 cells
- measurementConditions: 18 hrs, luminescence, maximum efficacy of <25% of the Fexarmine control classified as '+'
pEC50: −log10 of the molar value.
valueKind: pEC50

Sample answers from the record:
[[record]]
smilesstring = "COc1ccc([C@H]2CC[C@H](CN(c3cccc(-c4cnn(C5CC5)c4)c3)C(=O)[C@H]3CC[C@H](OC(=O)NC4CC4)CC3)CC2)cc1C"
valuekind = "pEC50"
observedvalue = "≥ 6.60"

[[record]]
smilesstring = "CCc1nc(-c2ccnc(N(C[C@H]3CC[C@H](c4ccc(OC)c(C)n4)CC3)C(=O)[C@H]3CC[C@H](OC(=O)NCCO)CC3)c2)co1"
valuekind = "pEC50"
observedvalue = "≥ 6.60"

[[record]]
smilesstring = "COc1ccc([C@H]2CC[C@H](CN(c3cccc(-c4cnc(C5CC5)s4)c3)C(=O)[C@H]3CC[C@H](C(=O)O)CC3)CC2)nc1C"
valuekind = "pEC50"
observedvalue = "≥ 6.60"

[[record]]
smilesstring = "COc1ccc([C@H]2CC[C@H](CN(c3cc(-c4cnn(C5CC5)c4)ccn3)C(=O)[C@H]3CC[C@H](OC(=O)NCCO)CC3)CC2)cc1C"
valuekind = "pEC50"
observedvalue = "≥ 6.60"

[[record]]
smilesstring = "COc1ccc([C@H]2CC[C@H](CN(c3cc(-c4coc(C5CC5)n4)ccn3)C(=O)[C@H]3CC[C@H](OC(=O)N(C)CCO)CC3)CC2)nc1C"
valuekind = "pEC50"
observedvalue = "≥ 6.60"

[[record]]
smilesstring = "COc1ccc([C@H]2CC[C@H](CN(c3cccc(-c4cnn(C5CC5)c4)c3)C(=O)[C@H]3CC[C@H](NC(=O)CNC(C)=O)CC3)CC2)cc1C"
valuekind = "pEC50"
observedvalue = "≤ 6.00"

[[record]]
smilesstring = "COc1ccc([C@H]2CC[C@H](CN(c3cc(-c4coc(C5CC5)n4)ccn3)C(=O)[C@H]3CC[C@H](OC(=O)N4CC(O)C4)CC3)CC2)nc1C#N"
valuekind = "pEC50"
observedvalue = "≥ 6.60"

[[record]]
smilesstring = "COc1ccc([C@H]2CC[C@H](CN(c3cccc(-c4cnc(C5CC5)s4)c3)C(=O)[C@H]3CC[C@H](NC(=O)COCCN)CC3)CC2)cc1C"
valuekind = "pEC50"
observedvalue = "6.00 to 6.60"


Looking up `COc1ccc([C@H]2CC[C@H](CN(c3cc(-c4cnn(C(C)C)c4)ccn3)C(=O)[C@H]3CC[C@H](NC(=O)COC(C)=O)CC3)CC2)cc1C` , I found its pEC50 recorded as ≥ 6.60

Looking up `COc1ccc([C@H]2CC[C@H](CN(c3cc(-c4coc(C5CC5)n4)ccn3)C(=O)[C@H]3CC[C@H](OC(=O)N4CCOC(C)(C)C4)CC3)CC2)nc1C` , I found its pEC50 recorded as ≥ 6.60

Looking up `COc1ccc([C@H]2CC[C@H](CN(c3cc(-c4cnn(C(C)C)c4)ccn3)C(=O)[C@H]3CC[C@H](OC(=O)N4CC(S(C)(=O)=O)C4)CC3)CC2)cc1C#N` , I found its pEC50 recorded as ≥ 6.60

meta.source: patent US20220089575A1
